Kindly state kon for each of the entries shown.
# SYSTEM: T1, human PCSK9 (human, UniProt Q8NBP7 31-692, limits assumed)
# T1 construct: also called hPCSK9; huPCSK9
# T1 sequence (Q8NBP7 31-692 limits assumed): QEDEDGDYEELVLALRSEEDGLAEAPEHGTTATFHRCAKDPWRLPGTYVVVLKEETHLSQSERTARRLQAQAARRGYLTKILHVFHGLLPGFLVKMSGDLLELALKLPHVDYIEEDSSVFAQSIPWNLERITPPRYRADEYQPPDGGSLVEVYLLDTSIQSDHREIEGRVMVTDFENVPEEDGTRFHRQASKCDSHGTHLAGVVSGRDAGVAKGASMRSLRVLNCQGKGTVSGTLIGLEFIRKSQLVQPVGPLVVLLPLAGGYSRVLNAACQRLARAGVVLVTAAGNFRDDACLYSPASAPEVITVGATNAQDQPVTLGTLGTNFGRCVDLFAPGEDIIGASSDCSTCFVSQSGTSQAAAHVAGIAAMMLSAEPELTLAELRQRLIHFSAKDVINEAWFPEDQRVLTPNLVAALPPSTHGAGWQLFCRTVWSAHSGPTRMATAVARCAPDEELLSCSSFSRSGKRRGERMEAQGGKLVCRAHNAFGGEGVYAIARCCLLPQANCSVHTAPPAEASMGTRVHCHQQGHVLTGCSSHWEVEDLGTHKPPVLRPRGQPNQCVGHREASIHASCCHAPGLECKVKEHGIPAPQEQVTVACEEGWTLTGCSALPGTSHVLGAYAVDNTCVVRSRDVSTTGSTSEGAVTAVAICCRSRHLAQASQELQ
# TEST_NAME: SPR Biacore 3000, captured IgG, hPCSK9 injected, pH 5.5
Answer with a number only, understood to be in M⁻¹ s⁻¹.

Param item = 5L1724H23_6L3H3 (antibody, V domains shown, Only CDRs printed; Full-length IgG) VH: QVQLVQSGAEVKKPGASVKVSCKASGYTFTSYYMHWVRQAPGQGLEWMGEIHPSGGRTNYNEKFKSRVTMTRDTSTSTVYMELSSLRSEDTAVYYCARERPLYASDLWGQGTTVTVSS VL: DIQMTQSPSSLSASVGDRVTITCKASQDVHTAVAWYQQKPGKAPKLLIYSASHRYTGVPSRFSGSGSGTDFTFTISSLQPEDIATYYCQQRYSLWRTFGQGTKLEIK ; retrieve measured kon. 95500

Suppose we examine the binder 5L1721H23_6L3 (antibody, V domains shown, Tested as full-length IgG; also called heavy UC-H5H23, light UC-H5L1721-6L3) VH: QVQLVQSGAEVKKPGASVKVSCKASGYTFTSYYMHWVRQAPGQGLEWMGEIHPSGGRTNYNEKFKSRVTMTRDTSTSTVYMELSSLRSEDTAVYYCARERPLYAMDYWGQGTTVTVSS VL: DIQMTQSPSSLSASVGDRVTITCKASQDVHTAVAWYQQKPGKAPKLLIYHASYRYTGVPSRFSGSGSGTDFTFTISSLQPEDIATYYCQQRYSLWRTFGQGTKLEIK ; what kon value has been reported? 64500

Param item = 5L1724H23_6L3 (antibody, V domains shown, Only CDRs printed; Full-length IgG) VH: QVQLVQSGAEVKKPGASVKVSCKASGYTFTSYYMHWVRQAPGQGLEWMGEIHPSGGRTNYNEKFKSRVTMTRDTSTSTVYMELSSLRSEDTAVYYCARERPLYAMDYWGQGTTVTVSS VL: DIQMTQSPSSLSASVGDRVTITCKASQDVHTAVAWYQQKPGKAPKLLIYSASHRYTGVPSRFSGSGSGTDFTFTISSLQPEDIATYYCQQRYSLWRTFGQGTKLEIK ; retrieve measured kon. 75400
